Recorded measurements of Ki, one per entry
- system name: GmLYR3-1 (Glycine max, UniProt A5YJW2)
- Sequence (A5YJW2 entry or part of it): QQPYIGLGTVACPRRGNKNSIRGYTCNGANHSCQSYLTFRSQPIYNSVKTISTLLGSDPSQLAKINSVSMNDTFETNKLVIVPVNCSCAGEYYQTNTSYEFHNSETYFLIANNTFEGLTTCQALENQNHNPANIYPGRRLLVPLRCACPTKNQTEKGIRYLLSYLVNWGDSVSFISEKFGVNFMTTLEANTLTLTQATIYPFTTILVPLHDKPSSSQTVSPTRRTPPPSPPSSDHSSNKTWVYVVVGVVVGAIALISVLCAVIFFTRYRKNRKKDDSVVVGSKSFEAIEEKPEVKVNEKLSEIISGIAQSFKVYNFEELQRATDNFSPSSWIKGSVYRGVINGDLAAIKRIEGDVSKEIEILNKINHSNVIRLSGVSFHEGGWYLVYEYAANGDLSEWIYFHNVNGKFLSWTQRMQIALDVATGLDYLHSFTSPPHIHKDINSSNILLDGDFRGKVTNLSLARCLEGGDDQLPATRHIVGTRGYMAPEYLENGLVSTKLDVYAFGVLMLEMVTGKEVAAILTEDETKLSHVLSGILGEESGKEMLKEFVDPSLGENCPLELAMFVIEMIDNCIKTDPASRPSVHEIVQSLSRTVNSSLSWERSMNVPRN
- assay protocol: Equilibrium, saturation and competitive binding on MtLYR3 ortholog expressed in N. benthamiana leaves
- protocol conditions: GmLYR3-1; read-out: Affinity (Ki)
Entry rule: numbers only, all in nM.

Before answering, review these 2 worked examples.
# compound, unit annotation, Ki
measured = [
    ("CCCCCCCC/C=C\\CCCCCCCC(=O)N[C@H]1[C@H](O[C@H]2[C@H](O)[C@@H](NC(C)=O)[C@H](O[C@H]3[C@H](O)[C@@H](NC(C)=O)[C@H](O[C@H]4[C@H](O)[C@@H](NC(C)=O)C(O)O[C@@H]4COS(=O)(=O)O)O[C@@H]3CO)O[C@@H]2CO)O[C@H](CO)[C@@H](O)[C@@H]1O (stereo partly drawn) [LCO-IV(S, C18:1Δ9)]", "nM", 12),
    ("CCCCCCCCCCCCCCCC(=O)N[C@H]1[C@H](O[C@H]2[C@H](O)[C@@H](NC(C)=O)[C@H](O[C@H]3[C@H](O)[C@@H](NC(C)=O)[C@H](O[C@H]4[C@H](O)[C@@H](NC(C)=O)C(O)O[C@@H]4COS(=O)(=O)O)O[C@@H]3CO)O[C@@H]2CO)O[C@H](CO)[C@@H](O)[C@@H]1O (stereo partly drawn) [LCO-IV(S, C16:0)]", "nM", 18),
]

# ---- query compound ----
### Prompt Returns the measured Ki for the input compound. Input: CCCCCCCCCCCCCCCC(=O)N[C@H]1[C@H](O[C@H]2[C@H](O)[C@@H](NC(C)=O)[C@H](O[C@H]3[C@H](O)[C@@H](NC(C)=O)[C@H](O[C@H]4[C@H](O)[C@@H](NC(C)=O)C(O)O[C@@H]4CO)O[C@@H]3CO)O[C@@H]2CO)O[C@H](CO)[C@@H](O)[C@@H]1O (stereo partly shown) [LCO-IV(C16:0)]
### Response 70

###

- system name: PvLYR3 (Phaseolus vulgaris, UniProt V7CFC1)
- Sequence (V7CFC1 entry or part of it): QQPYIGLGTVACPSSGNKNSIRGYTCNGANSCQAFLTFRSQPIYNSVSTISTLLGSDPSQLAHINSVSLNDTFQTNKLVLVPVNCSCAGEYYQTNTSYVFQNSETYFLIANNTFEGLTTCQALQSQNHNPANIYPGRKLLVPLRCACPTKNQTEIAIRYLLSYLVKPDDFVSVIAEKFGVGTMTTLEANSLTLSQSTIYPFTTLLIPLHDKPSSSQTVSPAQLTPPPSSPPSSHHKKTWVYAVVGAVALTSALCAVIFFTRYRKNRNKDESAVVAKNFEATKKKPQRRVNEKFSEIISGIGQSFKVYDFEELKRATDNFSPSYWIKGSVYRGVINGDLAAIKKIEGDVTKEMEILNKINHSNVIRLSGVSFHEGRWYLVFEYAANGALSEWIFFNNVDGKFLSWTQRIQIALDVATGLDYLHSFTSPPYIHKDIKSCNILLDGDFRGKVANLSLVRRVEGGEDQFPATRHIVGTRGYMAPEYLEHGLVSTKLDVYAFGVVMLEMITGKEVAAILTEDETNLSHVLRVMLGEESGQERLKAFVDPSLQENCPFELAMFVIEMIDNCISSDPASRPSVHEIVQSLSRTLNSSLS
- assay protocol: Equilibrium, saturation and competitive binding on MtLYR3 ortholog expressed in N. benthamiana leaves
- protocol conditions: PvLYR3; read-out: Affinity (Ki)
Here, each record is paired with measured pKi data.
Remember, pKi is on a log scale: it is -log10 of the molar concentration.

Illustrative cases are given below, each with its answer.
# compound, pKi
data = [
    ("CCCCCCCCCCCCCCCC(=O)N[C@H]1[C@H](O[C@H]2[C@H](O)[C@@H](NC(C)=O)[C@H](O[C@H]3[C@H](O)[C@@H](NC(C)=O)[C@H](O[C@H]4[C@H](O)[C@@H](NC(C)=O)C(O)O[C@@H]4CO)O[C@@H]3CO)O[C@@H]2CO)O[C@H](CO)[C@@H](O)[C@@H]1O (stereo partly shown) [LCO-IV(C16:0)]", 7.64),
    ("CCCCCCCCCCCCCCCC(=O)N[C@H]1[C@H](O[C@H]2[C@H](O)[C@@H](NC(C)=O)[C@H](O[C@H]3[C@H](O)[C@@H](NC(C)=O)[C@H](O[C@H]4[C@H](O)[C@@H](NC(C)=O)C(O)O[C@@H]4COS(=O)(=O)O)O[C@@H]3CO)O[C@@H]2CO)O[C@H](CO)[C@@H](O)[C@@H]1O (stereo partly drawn) [LCO-IV(S, C16:0)]", 7.77),
]

Consider now this further compound.
### Prompt API: value(readout=pKi, system=PvLYR3 (Phaseolus vulgaris, UniProt V7CFC1)) for record CCCCCCCC/C=C\CCCCCCCC(=O)N[C@H]1[C@H](O[C@H]2[C@H](O)[C@@H](NC(C)=O)[C@H](O[C@H]3[C@H](O)[C@@H](NC(C)=O)[C@H](O[C@H]4[C@H](O)[C@@H](NC(C)=O)C(O)O[C@@H]4COS(=O)(=O)O)O[C@@H]3CO)O[C@@H]2CO)O[C@H](CO)[C@@H](O)[C@@H]1O (stereo partly drawn) [LCO-IV(S, C18:1Δ9)]
### Response 7.89
